# Target of assay: GCN2 kinase (Homo sapiens, UniProt Q9P2K8)
# Protocol text: GCN2 enzyme inhibition assay (Transcreener ADP2 fluorescence polarization)
# Type: biochemical
# Condition label: compounds of Formula II; 280 μM ATP, 4 nM GCN2 kinase
pKi: −log10 of the molar value.
Readout label: pKi

Compound: CNCCOc1cc(-c2cnc3ccc(C(F)F)nn23)cc(N2CCCC(CNS(C)(=O)=O)C2)n1 (centres unmarked)
Readout label: pKi
Meas value: > 8.00

Just so you know, measured pKi for CS(=O)(=O)NCC1CN(c2cc(-c3cnc4ccc(C(F)F)nn34)ncn2)CC1O (centres unmarked) [II-152] came out at 6.00 to 8.00

Just so you know, measured pKi for CS(=O)(=O)N1CCC12CCCN(c1cc(-c3cnc4ccc(C(F)F)nn34)ncn1)C2 (centres unmarked) came out at 6.00 to 8.00

Just so you know, measured pKi for CC1CC(P(C)(C)=O)CN(c2cc(-c3cnc4ccc(C(F)F)nn34)ncn2)C1 (centres unmarked) [II-711] came out at 6.00 to 8.00

Just so you know, measured pKi for CC1CC(CO)C(C)N(c2cc(-c3cnc4ccc(C(F)F)nn34)ncn2)C1 (single isomer, unassigned) [II-586] came out at 6.00 to 8.00

Just so you know, measured pKi for "CC1(C)COCCN1c1cc(-c2cnc3ccc(C(F)F)nn23)ncn1" came out at 6.00 to 8.00

Just so you know, measured pKi for NC(=O)C1CCN(c2cc(-c3cnc4ccc(C(F)F)nn34)ncn2)C1 (centres unmarked) came out at 6.00 to 8.00

* * *

# Target of assay: intracellular GCN2 (phosphorylation of the GCN2 substrate eIF2α) (Homo sapiens, UniProt Q9P2K8)
# Sequence (Q9P2K8 whole entry): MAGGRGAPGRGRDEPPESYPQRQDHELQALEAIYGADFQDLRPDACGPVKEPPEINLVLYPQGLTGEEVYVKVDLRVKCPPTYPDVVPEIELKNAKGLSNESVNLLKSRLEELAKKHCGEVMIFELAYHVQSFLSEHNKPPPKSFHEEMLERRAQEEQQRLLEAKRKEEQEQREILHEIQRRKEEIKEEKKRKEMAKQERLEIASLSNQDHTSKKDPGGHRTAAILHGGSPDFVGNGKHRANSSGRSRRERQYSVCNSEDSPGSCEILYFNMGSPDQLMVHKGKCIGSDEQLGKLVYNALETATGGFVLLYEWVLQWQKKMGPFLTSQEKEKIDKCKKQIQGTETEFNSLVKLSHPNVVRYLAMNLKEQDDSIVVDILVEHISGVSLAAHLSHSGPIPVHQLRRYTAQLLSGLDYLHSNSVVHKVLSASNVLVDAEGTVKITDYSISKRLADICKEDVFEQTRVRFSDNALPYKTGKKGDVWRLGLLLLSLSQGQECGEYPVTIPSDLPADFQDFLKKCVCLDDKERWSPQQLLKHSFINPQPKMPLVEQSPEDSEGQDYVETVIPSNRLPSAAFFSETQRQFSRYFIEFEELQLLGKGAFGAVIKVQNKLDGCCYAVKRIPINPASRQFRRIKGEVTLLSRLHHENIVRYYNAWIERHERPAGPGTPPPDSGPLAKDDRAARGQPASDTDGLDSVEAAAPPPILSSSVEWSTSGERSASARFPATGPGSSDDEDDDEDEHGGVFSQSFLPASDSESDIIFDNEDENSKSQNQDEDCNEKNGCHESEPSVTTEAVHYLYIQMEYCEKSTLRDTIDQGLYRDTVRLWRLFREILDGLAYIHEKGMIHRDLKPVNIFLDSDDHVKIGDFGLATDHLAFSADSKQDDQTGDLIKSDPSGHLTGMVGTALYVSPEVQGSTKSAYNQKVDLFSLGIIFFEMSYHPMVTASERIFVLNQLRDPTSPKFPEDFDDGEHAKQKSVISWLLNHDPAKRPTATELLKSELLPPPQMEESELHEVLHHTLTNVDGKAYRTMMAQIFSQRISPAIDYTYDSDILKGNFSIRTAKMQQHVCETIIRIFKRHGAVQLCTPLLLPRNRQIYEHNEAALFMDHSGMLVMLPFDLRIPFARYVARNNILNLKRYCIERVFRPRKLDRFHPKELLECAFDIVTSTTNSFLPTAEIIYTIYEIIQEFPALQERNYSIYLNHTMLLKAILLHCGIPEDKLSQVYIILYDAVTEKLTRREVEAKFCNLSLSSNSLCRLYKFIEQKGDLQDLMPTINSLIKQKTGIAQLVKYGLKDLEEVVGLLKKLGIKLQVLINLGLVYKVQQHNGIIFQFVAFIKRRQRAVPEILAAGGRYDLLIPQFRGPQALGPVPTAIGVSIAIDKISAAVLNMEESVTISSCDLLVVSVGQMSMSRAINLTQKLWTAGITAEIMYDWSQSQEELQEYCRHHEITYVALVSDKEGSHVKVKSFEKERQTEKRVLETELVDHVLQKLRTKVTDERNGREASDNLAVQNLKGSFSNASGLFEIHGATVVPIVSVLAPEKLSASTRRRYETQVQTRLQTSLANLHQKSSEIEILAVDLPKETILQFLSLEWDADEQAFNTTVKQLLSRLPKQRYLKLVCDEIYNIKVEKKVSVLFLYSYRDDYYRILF
# Protocol text: GCN2 cellular inhibition assay (AlphaScreen SureFire P-eIF2α Ser51, borrelidin-treated U2OS cells)
# Type: cell-based
# Condition label: compounds of Formula II; biomarker assay, phosphorylated eIF2α Ser51 in borrelidin-treated U2OS cells
Readout label: IC50

The cases that follow already have their IC50 on record.
Compound: FC(F)c1ccc2ncc(-c3ccnc(N4CCn5cnnc5C4)c3)n2n1
IC50: > 5000 nM
--
Compound: CCN1CCN(c2cc(-c3cnc4ccc(C(F)F)nn34)ncn2)C(C)C1CNS(C)(=O)=O (single isomer, unassigned) [II-543]
IC50: 500 to 5000 nM
--
Compound: CS(=O)(=O)N1CCC2(CCCN(c3cc(-c4cnc5ccc(C(F)F)nn45)ncn3)C2)C1 (centres unmarked)
IC50: 500 to 5000 nM
--
Compound: CN(CC1CCCN(c2cc(-c3cnc4ccc(C(F)F)nn34)ncn2)C1)S(N)(=O)=O (centres unmarked)
IC50: < 500 nM
--
Compound: NS(=O)(=O)CCC1CCCN(c2cc(-c3cnc4ccc(C(F)F)nn34)ncn2)C1 (centres unmarked)
IC50: 500 to 5000 nM
--
Compound: CC1C(CNS(C)(=O)=O)N(CC2CC2)CCN1c1cc(-c2cnc3ccc(C(F)F)nn23)ncn1 (centres unmarked)
IC50: < 500 nM
--
Compound: CC1CC(CNS(C)(=O)=O)C(C)N(c2cc(-c3cnc4ccc(C(F)F)nn34)ncn2)C1 (single isomer, unassigned) [II-545]
IC50: 500 to 5000 nM
--
Compound: C[C@@H]1[C@@H](CNS(C)(=O)=O)N(C2CC2)CCN1c1cc(-c2cnc3ccc(C(F)F)nn23)ncn1
IC50: 500 to 5000 nM

Just so you know, measured IC50 for CC1NCCN(c2cc(-c3cnc4ccc(C(F)F)nn34)ncn2)C1C (centres unmarked) came out at > 5000 nM

Just so you know, measured IC50 for CN(C)S(=O)(=O)NCC1CCCN(c2cc(-c3cnc4ccc(C(F)F)nn34)ncn2)C1 (centres unmarked) came out at 500 to 5000 nM

Just so you know, measured IC50 for "NC(=O)[C@H]1CCCN(c2cc(-c3cnc4ccc(C(F)F)nn34)ccn2)C1" came out at < 500 nM

Just so you know, measured IC50 for N#Cc1ccc2ncc(-c3cc(N4CCN5C(=O)CCCC5C4)ncn3)n2n1 (centres unmarked) came out at > 5000 nM

Just so you know, measured IC50 for CS(=N)(=O)CC1CCCN(c2cc(-c3cnc4ccc(C(F)F)nn34)ccn2)C1 (centres unmarked) came out at 500 to 5000 nM

Just so you know, measured IC50 for "C[C@H]1CN(c2cc(-c3cnc4ccc(C(F)F)nn34)ncn2)C[C@@H]1CNS(C)(=O)=O" came out at 500 to 5000 nM
